System: SNB-75 CNS
experiment: NCI-60 one-dose screen, 48 h (100 = growth as untreated, 0 = no growth, -100 = all killed)
particulars: 10 µM unless noted
About 83,000 compounds went through this panel and 20% of them were active in at least one assay; those are over-represented in the sample as a whole.
Please use y for growth under 80% and n for everything else, ties included.

{"molecule": "Cc1ccc(-c2nc(SCC(=O)N3CCN(c4cc5c(cc4F)c(=O)c(C(=O)O)cn5C4CC4)CC3)nc(Cl)c2C#N)cc1", "category_label": "n"}
{"molecule": "O=C(Nc1cccnc1Nc1ccc(Cl)cc1)c1cn(Cc2cccc(Oc3ccccc3)c2)nn1", "category_label": "y"}
{"molecule": "COC(=O)c1nc(-c2ccccc2)oc1S(=O)(=O)N1CCCC(C)C1 (stereo not given)", "category_label": "n"}
{"molecule": "COc1ccc(CN2C(=O)OC(C)(COC(C)=O)C2=O)cc1 (stereo not given)", "category_label": "n"}
